System: Rattus norvegicus
assay_text: Antithrombin activity in rat at 1 mg/kg, iv after 60 mins measured as ecarin clotting time prolongation
Format: functional
parameter: Time

Previously resolved entries follow.
smiles | result
N=C(N)c1ccc(CNC(=O)[C@@H]2CCCN2C(=O)[C@@H](CC2CCCCC2)NCC(=O)O)cn1 | 104 s
N=C(N)c1ccc(CNC(=O)[C@@H]2C=CCN2C(=O)[C@@H](CC2CCCCC2)NCC(=O)O)cn1 | 138 s
N=C(N)c1ccc(CNC(=O)[C@@H]2CC=NN2C(=O)[C@@H](CC2CCCCC2)NCC(=O)O)cn1 | 201 s

So for N=C(N)c1ccc(CNC(=O)[C@@H]2CCNN2C(=O)[C@@H](CC2CCCCC2)NCC(=O)O)cn1 , the logged Time turned out to be 114 s

So for N=C(N)c1ccc(CNC(=O)[C@@H]2SCCN2C(=O)[C@@H](CC2CCCCC2)NCC(=O)O)cn1 , the logged Time turned out to be 77 s

So for N=C(N)c1ccc(CNC(=O)[C@@H]2CCCCN2C(=O)[C@@H](CC2CCCCC2)NCC(=O)O)cn1 , the logged Time turned out to be 54 s

So for CC(C)(NC(=O)[C@@H](CC1CCCCC1)NCC(=O)O)C(=O)NCc1ccc(C(=N)N)nc1 , the logged Time turned out to be 59 s

So for N=C(N)c1ccc(CNC(=O)[C@@H]2CSCN2C(=O)[C@@H](CC2CCCCC2)NCC(=O)O)cn1 , the logged Time turned out to be 49 s

So for C[C@H](NC(=O)[C@@H](CC1CCCCC1)NCC(=O)O)C(=O)NCc1ccc(C(=N)N)nc1 , the logged Time turned out to be 83 s

So for C=C1CCN(C(=O)[C@@H](CC2CCCCC2)NCC(=O)O)[C@@H]1C(=O)NCc1ccc(C(=N)N)nc1 , the logged Time turned out to be 47 s

So for N=C(N)c1ccc(CNC(=O)[C@@H]2CCN2C(=O)[C@H](NCC(=O)O)C2CCCCC2)cc1 , the logged Time turned out to be 98 s

So for N=C(N)c1ccc(CNC(=O)C2(NC(=O)[C@@H](CC3CCCCC3)NCC(=O)O)CCCC2)cn1 , the logged Time turned out to be 46 s
